Target: T1, glucocorticoid-induced tumor necrosis factor receptor (GITR) (human, UniProt Q9Y5U5 26-241)
T1 chain: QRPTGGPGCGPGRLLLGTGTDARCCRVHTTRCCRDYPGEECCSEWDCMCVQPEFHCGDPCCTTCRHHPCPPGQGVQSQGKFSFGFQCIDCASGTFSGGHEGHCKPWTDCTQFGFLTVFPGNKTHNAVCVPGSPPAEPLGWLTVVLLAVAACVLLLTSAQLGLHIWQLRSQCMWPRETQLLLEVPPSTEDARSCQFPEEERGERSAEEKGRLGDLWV
Assay: BLI
endpoint label: Kd (nM)
Please reply with the bare figure in nM and do not write the unit itself.

binder="mAb #17-60 (antibody, V domains shown) VH: EVQLVESGAEVKKPGASVKVSCKTSGYTFTDHYIHWVRQAPGQGLEWMGWINPSSGGTEYAQKFQGRVTMTRDTPISTAYMDLSGLRSDDTAVYYCARETIGGWNALDVWGQGTLVTVSS VL: QPVLTQPPSASGTPGQRVTISCSGSSSNIGINTVNWYQQLPRTPPKLLIYTNNQRPSGVPDRFSGSKSDTSASLAISGLQSEDEADYYCAAWDDTLNGPLFGGGTKVTVLG" assay_value=1.14

(Q) Which Kd value is on record for mAb 3-167 (antibody, V domains shown) VH: EVQLVQSGSELKKPGASVKVSCKASGYTFTGYYMHWVRQAPGQGLEWMGWINPNSGGTNYAQKFQGRVTVTTDTSTSTAYMELRSLRSDDTAVYYCAREGVHSDAFDVWGQGTTVTVSS VL: ETTLTQSPATLSVSPGERATLSCRASQSVYTNLAWYQQKPGQAPSLLIYGASSRATGIPDRFSGSGSGTDFTLTISRLEPEDFAVYYCQQYGSSHFTFGPGTKVDIK ?
(A) 0.855

(Q) Cool, now mAb #15-68 (antibody, V domains shown) VH: EVQLVQSGAEVKKPGASVNVSCKASGYTFTGYYMHWVRQAPGQGLEWMGWINPNSGGTNYAQKFQGRVTVTTDTSNSTAYMELNRLKSDDTAVYYCAREGSGDLDSLYMDVWGKGTMVTVSS VL: SYELTQPPSVSVAPGQTARITCGANNIGSKSVHWYQQKPGQAPVLVVYDDSDRPSGIPERFSGSNSGNTATLTITRVEAGDEADYYCQLWDGGSDVVFGGGTKLTVLG
(A) 3.81

(Q) How about mAb #5-139 (antibody, V domains shown) VH: EVQLVQSGAEVKKPGASVKVSCKTSGYTFTDHYIHWVRQAPGQGLEWMGWINPSSGGTEYAQKFQGRVTMTRDTPISTAYMDLSGLRSDDTAVYYCARETIGGWNALDVWGQGTTVTVSS VL: QSVLTQPPSASGSPGQRVTMSCSGSSSTIGRHSVNWYQQLPGTAPKLLIYANNQRPSGVPGRFSASKSDTSASLAISGLRSEDEANYYCAAWDDSLSGVLFGGGTKVTVLG ?
(A) 0.42

(Q) Same thing, different binder: mAb #1-81 (antibody, V domains shown, Found as scFv by phage display) VH: EVQLVESGAEVKKPGASVKVSCKTSGYTFTDHYIHWVRQAPGQGLEWMGWINPSSGGTEYAQKFQGRVTMTRDTPISTAYMDLSGLRSDDTAVYYCARETIGGWNALDVWGQGTLVTVSS VL: QPVLTQPPSASGTPGQRVTISCSGSSSNIGINTVNWYQQLPRTPPKLLIYTNNQRPSGVPDRFSGSKSDTSASLAISGLQSEDEADYYCAAWDDTLNGPLFGGGTKVTVLG
(A) 1.66

Source of measurements: patent US20170304444A1
